Field: IC50. Provide a value for each of the compounds that follow.
- Test system: Gli-responsive luciferase reporter cells, SUFU pathway antagonism
- Procedure Text: Gli-SUFU pathway antagonists, dose response, cell-based, luciferase luminescence, uHTS hits (AID 602464)

Which value of IC50 has been reported for `S=C(Nc1ccccc1)N1CCC(Cc2ccccc2)CC1` in the records?
5.67 µM

Which value of IC50 has been reported for `Cc1cc(C)c(C(N)=O)c(SCC(=O)c2cc(C)n(-c3cc(C)on3)c2C)n1` in the records?
4.78 µM

Which value of IC50 has been reported for `COc1ccc(C2=[N+](C)CCn3cccc32)c(OC)c1` in the records?
10.2 µM

Which value of IC50 has been reported for CC(CC(=O)N1CCN(c2cccc(Cl)c2)CC1)S(=O)(=O)c1ccc2c(c1)NC(=O)CO2 (configuration not stated) in the records?
6.43 µM

Which value of IC50 has been reported for `O=C1N/C(=C\c2ccc(O)cc2)C(O)=C1C=NCc1ccccc1` in the records?
4.73 µM

Which value of IC50 has been reported for `C=C(C)CSc1nc2sc3c(c2c(=O)n1C1CCCCC1)CCN(C)C3` in the records?
8.67 µM

Which value of IC50 has been reported for `COc1ccc(OC)c(Cc2cnc3nc(N)nc(N)c3c2C)c1` in the records?
2.8 µM

----------
- System: Gli-responsive luciferase reporter cells, SUFU pathway antagonism
- Procedure Text: Gli-SUFU pathway antagonists, dose response, cell-based, luciferase luminescence, uHTS hits (AID 602464)
The source made the active and inactive calls. Cut-off read from the data, not from the text of the source: active = IC50 below about 20 µM; inactive = the rest.
In this exercise, the only acceptable responses are active, inactive

Called result for CC1C(OC(=O)CCC(=O)NC(C)(C)CO)O[C@H]2OC3(C)CC[C@H]4[C@H](C)CCC1C24OO3 (some centres undefined)
active

Called result for `CCCCOc1ccc(N2C(N)=NC(N)=NC23CCCCC3)cc1`
active

Called result for `Cn1c(=O)c2c(nc(NCCOc3ccc(C(C)(C)C)cc3)n2C)n(C)c1=O`
inactive

Called result for `COc1ccc(CNc2cc(C)nc3ncnn23)c(OC)c1`
active

----------
- System: Gli-responsive luciferase reporter cells, SUFU pathway antagonism
- Procedure Text: Gli-SUFU pathway antagonists, dose response, cell-based, luciferase luminescence, uHTS hits (AID 602464)
Active and inactive are the calls of the source. No stated cut-off is given here; in the data, active means IC50 below about 20 µM; inactive means the rest.
In this exercise, the only acceptable responses are active, inactive

Called result for `Cc1ccc(OCCOC(=O)c2cc(S(=O)(=O)N3CCCCC3)ccc2N2CCOCC2)cc1`
inactive

Called result for `CN(C)CCn1c2ccccc2c2nc3ccc([N+](=O)[O-])cc3cc21`
active

Called result for Cc1cc(C)c[n+](C(C)C(=O)c2ccc(-c3ccccc3)cc2)c1 (stereo unspecified)
active

Called result for `O=C(C1CCCCC1)N1CCN(c2ccnc3cc(Cl)ccc23)CC1`
active

Called result for CCC(C)NC(=O)CCC(=O)OC1O[C@H]2OC3(C)CC[C@H]4[C@H](C)CCC(C1C)C24OO3 (stereo partly specified)
active

Called result for O=C(c1cccc(S(=O)(=O)N2CCN(c3ccccc3)CC2)c1)N1CCCC(C(F)(F)F)C1 (stereo unspecified)
active

Called result for CC1CCCCC1NS(=O)(=O)c1ccc(S(=O)(=O)NCc2ccncc2)cc1 (stereo unspecified)
active

Called result for `CC(C)(C)OC(=O)N1CCC(c2cc(-c3cccs3)n[nH]2)CC1`
inactive

Called result for `CCCCNc1c(-c2ccc(OC)c(Sc3ccc(OC)cc3)c2)nc2ccccn12`
active

Called result for `FC(F)Oc1ccc(-c2c[n+]3c(n2-c2ccccc2)CCCCC3)cc1`
active

Called result for `O=C(Nc1ccccc1)C1=C[C@H](C2CCCCC2)C[C@H](OCCCCO)O1`
active

Called result for `COc1ccccc1N1CCN(c2ncc(C(=O)N3CCN(c4cccc(Cl)c4)CC3)c3ccccc23)CC1`
active

Called result for `Cc1nc2ccccc2c2oc(C(=O)N3CCN(C4CCCCC4)CC3)cc12`
active

Called result for `CCn1c(=NC(=O)CS(=O)(=O)c2ccccc2)sc2cccc(OC)c21`
active

Called result for `CC(C)(C)c1ccc(CN2C3=NCCCN3c3ccccc32)cc1`
active

Called result for Cc1sc2ncnc(NCC(O)c3ccc([N+](=O)[O-])cc3)c2c1C (stereo unspecified)
active

Called result for `Cc1cc(N/N=C/c2ccc(O)cc2O)nc(-n2nc(C)cc2C)n1`
active

Called result for CC1Cc2cc(S(=O)(=O)N3CCC(C(=O)N4CCN(c5ccccc5F)CC4)CC3)ccc2N1C(=O)C1CC1 (stereo unspecified)
active

Called result for COc1ccccc1CCNC(=O)C(=O)NCCC1CCCCN1S(=O)(=O)c1cccs1 (stereo unspecified)
active

Called result for `CCOc1ccc(-c2cc(C)[n+](CCO)c(-c3ccc(OCC)cc3)c2)cc1`
active

Called result for `C/C(=N\NC(=O)C(=O)Nc1ccc(C)c(Cl)c1)c1ccncc1`
active

Called result for `CCOP(=O)(CCP(=O)(OCC)OCC)OCC.C[CH2][Sn]([Cl])([Cl])[CH2]C`
active

Called result for `CCc1ccc(CN(C)C(=O)c2cc(COc3cccc4cnccc34)on2)cc1`
active

Called result for `CCOC(=O)c1sc2nc(CC(=O)OC)nc(NCc3ccc(Cl)cc3)c2c1C`
active

Called result for `O=C(/C=C/c1ccco1)Nc1ccc(-c2nc3ccccc3[nH]2)cc1`
active

Called result for `C[n+]1c2n(c3ccccc31)N=C(c1ccccc1)CS2`
active

Called result for `CCn1c(=NC(=O)CCS(=O)(=O)c2ccccc2)sc2cccc(OC)c21`
active

Called result for `CCOC(=O)c1c(NC(=O)COc2cccc3c2CCN(C)C3=O)sc2c1CCC2`
active

Called result for C=CCOC(=O)c1[nH]c2c(c1C)C(=O)CC(c1cc(OC)c(OC)c(OC)c1)C2 (stereo unspecified)
active

Called result for `O=C(N[C@@H]1C/C=C\C[C@H](CC(=O)N(CCO)Cc2ccccc2)C(=O)NC[C@@H](c2ccccc2)OC1=O)OCC1c2ccccc2-c2ccccc21`
active

Called result for `C(#Cc1ccccc1)C[N+]1(CC#Cc2ccccc2)CCCC1`
active

----------
- System: Gli-responsive luciferase reporter cells, SUFU pathway antagonism
- Procedure Text: Gli-SUFU pathway antagonists, dose response, cell-based, luciferase luminescence, uHTS hits (AID 602464)
The source made the active and inactive calls. Rule as the data show it: active = IC50 below about 20 µM; inactive = the rest.
In this exercise, the only acceptable responses are active, inactive

Called result for `COc1ccc(-c2c[n+](CC(=O)c3ccccc3)c3n2CCCCC3)cc1`
active

Called result for `Cc1nn(-c2ccc(NC(=O)c3ccncc3)cc2)c(C)c1Cl`
active

Called result for `O=C(N[C@@H]1C/C=C\C[C@@H](CC(=O)N(CCO)Cc2ccccc2)C(=O)N[C@@H](c2ccccc2)COC1=O)OCC1c2ccccc2-c2ccccc21`
active

Called result for `CCOc1ccc(S(=O)(=O)NCc2ccncc2)cc1NC(=O)c1ccccc1`
active

Called result for `Cc1cc(=O)[nH]c(SCC(=O)/C=C2\N(C)c3ccccc3C2(C)C)n1`
active

Called result for `CC(C)C(=O)N1CCN(c2ccccc2NC(=O)COc2ccccc2)CC1`
inactive

Called result for `CC(=O)/C(=N\Nc1ccc(Cl)cc1Cl)Sc1cccc2cccnc12`
active

Called result for `C=CCOc1nc2c(c(=O)n(C)c(=O)n2C)n1Cc1ccc(Cl)cc1`
active

Called result for `Cc1cc(NC(=O)CSc2nc3c([nH]c4ccccc43)c(=O)n2-c2ccccc2F)no1`
active

Called result for CCCC(C)C(=O)Nc1nc(C)c(-c2csc(Nc3ccc(Cl)cc3)n2)s1 (centres undefined)
active

Called result for `CCn1c(/C=C/Nc2ccccc2)[n+](CC)c2cc(Cl)c(Cl)cc21`
active

Called result for CCC(C(=O)NCCC(C)C)n1ccc2cc(S(=O)(=O)N3CCCCC3)ccc21 (centres undefined)
active

Called result for `CCCCn1c(CN(C)Cc2ccccc2)nc2c1c(=O)n(C)c(=O)n2C`
active

Called result for `Nc1nc2ccccc2n1/N=C/c1ccc([N+](=O)[O-])s1`
active

Called result for `Fc1ccc(-n2nnnc2-c2cnc(-c3cccs3)nc2C(F)(F)F)cc1`
active

Called result for `Cc1ccc(NC(=O)COc2ccccc2C(N)=O)cc1S(=O)(=O)N1CCCCCC1`
active

Called result for `Cc1sc2ncnc(N3CCN(S(=O)(=O)c4ccc(C(C)(C)C)cc4)CC3)c2c1C`
active

Called result for `O=[N+]([O-])c1ccc(N2CCN(C(=S)NCc3ccc(Cl)cc3)CC2)cc1`
active

Called result for `O=C(N[C@@H]1C/C=C\C[C@@H](CC(=O)N(CCO)Cc2ccccc2)C(=O)NCCOC1=O)OCC1c2ccccc2-c2ccccc21`
active

----------
- Test system: Gli-responsive luciferase reporter cells, SUFU pathway antagonism
- Procedure Text: Gli-SUFU pathway antagonists, dose response, cell-based, luciferase luminescence, uHTS hits (AID 602464)
Parameter: IC50

Return IC50 measured with Gli-responsive luciferase reporter cells, SUFU pathway antagonism given this compound: `Cc1cccnc1CN1CCN(C(=O)c2cc(COc3ccc4ncccc4c3)on2)CC1`
5.18 µM

Return IC50 measured with Gli-responsive luciferase reporter cells, SUFU pathway antagonism given this compound: `Cc1sc2ncnc(NCc3cccs3)c2c1C`
8.05 µM

Return IC50 measured with Gli-responsive luciferase reporter cells, SUFU pathway antagonism given this compound: `CNc1ccccc1C(C)(C)c1cc(-c2cccc(Br)c2)no1`
2.02 µM

// data source = PubChem BioAssay AID602464
